system: hNET (Homo sapiens)
Construct: expressed in transfected cells
protocolDetails: Norepinephrine (NE) uptake assay in MDCK-Net6 cells stably transfected with human hNET
Type: cell-based
runParameters: test compound 1 μM; [3H]NE uptake, MDCK-Net6 cells; read-out: % Inhibition @ 1 μM (hNET)
Structures can show the parent of a compound that is named as a salt.

{"compound": "CNC[C@@H](O)[C@H](c1ccccc1)N1C(=O)C(C)(C)c2ccccc21 [Example 100, hydrochloride]", "inhibition at 1 µM / %": 94.2}
{"compound": "CNC[C@@H](O)[C@@H](c1cccs1)n1ccc2ccccc21 [Example 102, hydrochloride]", "inhibition at 1 µM / %": 95.3}
{"compound": "CN(C)C[C@H](O)[C@@H](c1ccccc1)n1ccc2ccccc21 (racemic) [Example 4, hydrochloride]", "inhibition at 1 µM / %": 24.5}
{"compound": "O[C@@H]([C@@H]1CCCN1)[C@@H](c1cccc(F)c1)n1ccc2ccccc21 [Example 105, hydrochloride]", "inhibition at 1 µM / %": 92.6}
{"compound": "CNC[C@@H](O)[C@H](c1ccccc1)n1ccc2c(F)cccc21 [Example 182, hydrochloride]", "inhibition at 1 µM / %": 97.1}
{"compound": "CNC[C@@H](O)[C@H](c1ccccc1)N1C(=O)C(C)(C)c2ccc(F)cc21 [Example 195, hydrochloride]", "inhibition at 1 µM / %": 91}
{"compound": "CNC[C@@H](O)[C@H](c1cccc(F)c1)n1cc(-c2ccc(OC)cc2)c2ccccc21 [Example 169, hydrochloride]", "inhibition at 1 µM / %": 72}
{"compound": "CNC[C@@H](O)[C@H](c1cccc(F)c1)n1cc(-c2cccc(C(F)(F)F)c2)c2ccccc21 [Example 177, hydrochloride]", "inhibition at 1 µM / %": 29.9}
{"compound": "CNC[C@@H](O)[C@H](c1ccccc1)N1C(=O)C(C)(C)c2cc(F)ccc21 [Example 110, hydrochloride]", "inhibition at 1 µM / %": 86.4}
{"compound": "CCCNC[C@@H](O)[C@H](c1cccc(F)c1)n1ccc2ccccc21 [Example 57, hydrochloride]", "inhibition at 1 µM / %": 17.5}
{"compound": "CNC[C@@H](O)[C@H](c1cccc(F)c1)n1cc(-c2ccccc2)c2ccccc21 [Example 98, hydrochloride]", "inhibition at 1 µM / %": 99.1}
{"compound": "OC(CNC1CC1)C(c1cccc(F)c1)n1ccc2ccccc21 (stereo in doubt) [Example 111, hydrochloride]", "inhibition at 1 µM / %": 42.7}
{"compound": "CNC[C@@H](O)[C@H](c1ccccc1)n1ccc2cc(Br)ccc21 [Example 126, hydrochloride]", "inhibition at 1 µM / %": 92.9}
{"compound": "CNC[C@@H](O)[C@H](c1ccccc1)n1ccc2c(C)cccc21 [Example 94, hydrochloride]", "inhibition at 1 µM / %": 94.9}
{"compound": "CNC[C@@H](O)[C@H](c1ccccc1)N1C(=O)C2(CCCCC2)c2cc(Br)ccc21 [Example 113, hydrochloride]", "inhibition at 1 µM / %": 99.7}

###

system: hNET (Homo sapiens, UniProt P23975)
Construct: expressed in transfected cells
Sequence (P23975 whole entry): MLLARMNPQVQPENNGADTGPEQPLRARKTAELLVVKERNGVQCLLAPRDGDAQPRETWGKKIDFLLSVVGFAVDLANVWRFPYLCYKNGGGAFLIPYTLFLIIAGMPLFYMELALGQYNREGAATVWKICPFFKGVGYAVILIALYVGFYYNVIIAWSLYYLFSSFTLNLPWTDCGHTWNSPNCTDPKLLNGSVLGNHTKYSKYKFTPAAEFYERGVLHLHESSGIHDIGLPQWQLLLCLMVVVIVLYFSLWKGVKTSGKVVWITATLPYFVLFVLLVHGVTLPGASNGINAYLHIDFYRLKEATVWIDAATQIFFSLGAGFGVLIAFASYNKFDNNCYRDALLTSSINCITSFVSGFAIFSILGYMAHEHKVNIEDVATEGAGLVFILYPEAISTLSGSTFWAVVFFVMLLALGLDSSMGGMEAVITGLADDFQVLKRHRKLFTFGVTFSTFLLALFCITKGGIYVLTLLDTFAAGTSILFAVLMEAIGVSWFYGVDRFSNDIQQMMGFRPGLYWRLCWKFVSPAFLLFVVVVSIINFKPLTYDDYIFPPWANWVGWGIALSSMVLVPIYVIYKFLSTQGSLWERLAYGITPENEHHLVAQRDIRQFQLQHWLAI
protocolDetails: Norepinephrine (NE) uptake assay in MDCK-Net6 cells stably transfected with human hNET
Assay type: cell-based
runParameters: test compound 1 μM; [3H]NE uptake, MDCK-Net6 cells; read-out: % Inhibition @ 1 μM (hNET)
Structures can show the parent of a compound that is named as a salt.

{"molecule": "CNC[C@@H](O)[C@H](c1ccccc1)n1ccc2c(Cl)cccc21 [Example 146, hydrochloride]", "inhibition at 1 µM": "97.1%"}
{"molecule": "CNC[C@@H](O)[C@H](c1ccccc1)n1ccc2cc(C#N)ccc21 [Example 130, hydrochloride]", "inhibition at 1 µM": "76%"}
{"molecule": "Cc1cn([C@@H](c2ccccc2)[C@H](O)CN)c2ccc(F)cc12 (racemic) [Example 118, hydrochloride]", "inhibition at 1 µM": "67.9%"}
{"molecule": "CNC[C@@H](O)[C@H](c1cccc(F)c1)n1cc(-c2ccc(C(F)(F)F)cc2)c2ccccc21 [Example 173, hydrochloride]", "inhibition at 1 µM": "67.5%"}
{"molecule": "CNC[C@@H](O)[C@H](c1ccccc1)N1C(=O)C2(CCC2)c2ccccc21 [Example 107, hydrochloride]", "inhibition at 1 µM": "96.6%"}
{"molecule": "CCN(C)C[C@H](O)[C@@H](c1ccccc1)n1ccc2ccccc21 (racemic) [Example 25, hydrochloride]", "inhibition at 1 µM": "37.5%"}
{"molecule": "CNC[C@@H](O)[C@H](c1cccc(C#N)c1)n1ccc2ccccc21 [Example 44, hydrochloride]", "inhibition at 1 µM": "98.2%"}
